Cited source for all entries: patent US12018009B2

Sequence of the target: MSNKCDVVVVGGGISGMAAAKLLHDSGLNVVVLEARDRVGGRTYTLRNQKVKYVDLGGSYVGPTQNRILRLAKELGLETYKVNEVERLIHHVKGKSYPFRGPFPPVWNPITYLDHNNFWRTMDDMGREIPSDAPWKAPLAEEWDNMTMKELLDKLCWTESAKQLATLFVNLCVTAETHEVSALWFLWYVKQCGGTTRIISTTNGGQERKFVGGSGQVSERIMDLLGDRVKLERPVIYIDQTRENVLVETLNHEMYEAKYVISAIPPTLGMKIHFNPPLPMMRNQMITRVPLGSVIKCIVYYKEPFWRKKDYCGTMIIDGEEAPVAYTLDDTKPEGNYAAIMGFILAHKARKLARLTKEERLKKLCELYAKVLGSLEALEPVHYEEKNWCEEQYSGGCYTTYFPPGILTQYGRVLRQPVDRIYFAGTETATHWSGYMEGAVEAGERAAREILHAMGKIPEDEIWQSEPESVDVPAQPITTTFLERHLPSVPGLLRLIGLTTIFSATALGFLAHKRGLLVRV
property_measured: IC50

# count of solved cases: 2
{"smiles_string": "Cc1nccc(Cl)c1C(=O)NCc1cnc(N2CCNC(=O)C2)nc1", "IC50": "> 10 µM"}
{"smiles_string": "Cc1cccc(Cl)c1C(=O)NCc1cnc(N2CCNC(=O)C2)nc1", "IC50": "> 10 µM"}

Proceeding to the next compound to report its IC50.
Problem: Fill in the blank: the reported IC50 of O=C1CN(c2ncc(CNC(=O)c3ccccc3Cl)cn2)CCN1 is ____.
Result: > 10 µM
